# SH2 binding enrichment values compiled below
# Assay target: Grb2 SH2 (UniProt P62993)
# Sequence (P62993 whole entry, looked up): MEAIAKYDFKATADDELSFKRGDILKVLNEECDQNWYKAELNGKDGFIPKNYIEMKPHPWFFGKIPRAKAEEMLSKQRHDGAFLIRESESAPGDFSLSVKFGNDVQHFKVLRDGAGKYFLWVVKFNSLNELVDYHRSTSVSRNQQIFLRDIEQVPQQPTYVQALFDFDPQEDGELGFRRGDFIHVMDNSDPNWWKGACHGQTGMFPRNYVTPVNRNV
# Assay explanation: SH2 binding enrichment of the phosphorylated peptide, bacterial display (enrichment ratio); higher = better substrate or ligand; peptides without Tyr show the background
Measured parameter: SH2 binding enrichment

> print(dat)
                  sequence.content               assay.target  experimental.value
1   LVLIKYLPEWT [PSEN1_Y240_F237L]  Grb2 SH2 (UniProt P62993)                2.06
2   TLLERYGMIEI [ACSF3_Y355_T358I]  Grb2 SH2 (UniProt P62993)               0.748
3          RLEKEYFDQHF [NPC1_Y394]  Grb2 SH2 (UniProt P62993)               0.865
4  GVRFTYTIDGS [DCX_Y105_I104T_YF]  Grb2 SH2 (UniProt P62993)                0.87
5           SGSIHYSRVPR [GLB1_Y57]  Grb2 SH2 (UniProt P62993)               0.734
6   PIYEGYGLPHA [ACTA1_Y171_A172G]  Grb2 SH2 (UniProt P62993)                0.79
7          LYIDSYEKDVA [PGM1_Y521]  Grb2 SH2 (UniProt P62993)                0.86

###

# Assay target: Fyn (UniProt P06241)
# Sequence (P06241 whole entry, looked up): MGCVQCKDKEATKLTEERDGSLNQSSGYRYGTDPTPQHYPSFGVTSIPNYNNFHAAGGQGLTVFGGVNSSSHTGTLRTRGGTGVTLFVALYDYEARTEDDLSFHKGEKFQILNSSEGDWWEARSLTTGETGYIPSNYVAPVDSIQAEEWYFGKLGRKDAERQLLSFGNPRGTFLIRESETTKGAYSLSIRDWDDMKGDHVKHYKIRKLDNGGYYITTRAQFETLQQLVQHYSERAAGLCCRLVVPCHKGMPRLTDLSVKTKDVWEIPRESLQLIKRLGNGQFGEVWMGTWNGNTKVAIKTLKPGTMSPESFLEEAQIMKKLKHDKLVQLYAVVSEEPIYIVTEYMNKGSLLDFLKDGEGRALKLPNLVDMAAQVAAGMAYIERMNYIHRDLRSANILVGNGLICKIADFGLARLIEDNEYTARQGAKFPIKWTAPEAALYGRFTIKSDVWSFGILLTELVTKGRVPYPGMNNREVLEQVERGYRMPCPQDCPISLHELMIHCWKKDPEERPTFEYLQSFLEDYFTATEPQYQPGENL
# Assay explanation: phosphorylation enrichment, bacterial display (enrichment ratio); higher = better substrate or ligand; peptides without Tyr show the background
Here, each record is paired with measured phosphorylation enrichment data.
Measured parameter: phosphorylation enrichment

> print(dat)
                       sequence.content          assay.target          measured.parameter  experimental.value
 1     IGHHAYGDQFR [IDH1_Y135_R132H_YF]  Fyn (UniProt P06241)  phosphorylation enrichment               0.346
 2          NHYKIYNPCAE [PTEN_Y68_L70P]  Fyn (UniProt P06241)  phosphorylation enrichment               0.508
 3     PGAPAYCVLME [MYO5A_Y1245_R1246C]  Fyn (UniProt P06241)  phosphorylation enrichment                1.12
 4               SGSIHYSRVPR [GLB1_Y57]  Fyn (UniProt P06241)  phosphorylation enrichment               0.605
 5          AHADEYGAEAL [HBA1_Y25_G23D]  Fyn (UniProt P06241)  phosphorylation enrichment               0.458
 6            LKETGYVVERP [BCLAF1_Y466]  Fyn (UniProt P06241)  phosphorylation enrichment               0.434
 7         KVPELYEIHTE [BCR_Y554_K558T]  Fyn (UniProt P06241)  phosphorylation enrichment               0.629
 8          MSRDIYSTDFF [NTRK1_Y676_YF]  Fyn (UniProt P06241)  phosphorylation enrichment                6.12
 9    GHLFAYDWIRI [BEST1_Y227_S231R_YF]  Fyn (UniProt P06241)  phosphorylation enrichment               0.673
10        KYACSYTPVKA [FLNB_Y708_T703K]  Fyn (UniProt P06241)  phosphorylation enrichment               0.387
11     LVMFIYVIFGM [SCN1A_Y1684_A1685V]  Fyn (UniProt P06241)  phosphorylation enrichment               0.517
12    EHFSFYGMKAV [SLC15A2_Y61_R57H_YF]  Fyn (UniProt P06241)  phosphorylation enrichment               0.473
13         SSVAGYACLAY [MVD_Y131_A128V]  Fyn (UniProt P06241)  phosphorylation enrichment               0.466
14           QRAADYFSQQM [GBP6_Y333_YF]  Fyn (UniProt P06241)  phosphorylation enrichment               0.546
15  CDDGKYVFVVT [RPS6KA3_Y488_Y483C_YF]  Fyn (UniProt P06241)  phosphorylation enrichment               0.444
16          PGIRMYQVQFN [LRFN1_Y454_YF]  Fyn (UniProt P06241)  phosphorylation enrichment               0.504
17    EKNANYKEGTF [CLRN1_Y171_I168N_YF]  Fyn (UniProt P06241)  phosphorylation enrichment               0.452
18            PKEEPYQMQEK [SLC5A3_Y565]  Fyn (UniProt P06241)  phosphorylation enrichment               0.784
19          VGEGPYLLSDL [ABCC12_Y7_I9L]  Fyn (UniProt P06241)  phosphorylation enrichment               0.565
20             TVFSDYLHPQY [CCPG1_Y569]  Fyn (UniProt P06241)  phosphorylation enrichment                0.43
21            SFSGEYGGGGG [ZG16_Y30_YF]  Fyn (UniProt P06241)  phosphorylation enrichment               0.348
22            LFEDRYLLGTS [ASS1_Y87_YF]  Fyn (UniProt P06241)  phosphorylation enrichment                1.29
23        PLFRKYWPNHI [GREB1L_Y1560_YF]  Fyn (UniProt P06241)  phosphorylation enrichment               0.698
24      EPVSDYINADI [PTPN11_Y304_N308D]  Fyn (UniProt P06241)  phosphorylation enrichment               0.581
25       KKGMIYGGGGG [PSME1_Y249_T244K]  Fyn (UniProt P06241)  phosphorylation enrichment               0.388
26    GVFSRHFTTFD [CLCA1_Y661_Y661H_YF]  Fyn (UniProt P06241)  phosphorylation enrichment                0.48
27             GKSFTYAAFHA [KCNT1_Y563]  Fyn (UniProt P06241)  phosphorylation enrichment                5.65
28     CATIHYNFMCN [TP53_Y234_T230A_YF]  Fyn (UniProt P06241)  phosphorylation enrichment               0.478
29            DTKDDYNALSV [IL17RB_Y457]  Fyn (UniProt P06241)  phosphorylation enrichment               0.599
30             KMKGDYYRYLA [YWHAG_Y130]  Fyn (UniProt P06241)  phosphorylation enrichment               0.594
31             LIEQAYDNPHE [PRPF8_Y871]  Fyn (UniProt P06241)  phosphorylation enrichment               0.645
32          KSSDVYVSFDF [SORL1_Y136_YF]  Fyn (UniProt P06241)  phosphorylation enrichment                5.77
33       EPGSLYGCGGG [ATM_Y2019_D2016G]  Fyn (UniProt P06241)  phosphorylation enrichment               0.851
34            TRHDEYLEVTK [MAP1A_Y2217]  Fyn (UniProt P06241)  phosphorylation enrichment               0.565
35   MGSFNYLGFAW [SPTLC2_Y178_R183W_YF]  Fyn (UniProt P06241)  phosphorylation enrichment               0.547
36        RSYSPCDYQPC [TNS1_Y796_Y796C]  Fyn (UniProt P06241)  phosphorylation enrichment               0.554
37              VAHAVYQAVLS [SMG1_Y549]  Fyn (UniProt P06241)  phosphorylation enrichment                5.92
38           LDLPGYCPLRE [CCDC116_Y291]  Fyn (UniProt P06241)  phosphorylation enrichment                0.96
39         VEDHDYEGGIG [TKT_Y564_Y563D]  Fyn (UniProt P06241)  phosphorylation enrichment               0.518
40            SMAKYYASEIA [ACADSB_Y373]  Fyn (UniProt P06241)  phosphorylation enrichment               0.404
41                VLPIDYYFPPQ [AR_Y552]  Fyn (UniProt P06241)  phosphorylation enrichment               0.687
42         AFPVSYSSSSA [RET_Y687_G691S]  Fyn (UniProt P06241)  phosphorylation enrichment               0.461
43      IGEVVYQRAAM [GRIN2A_Y502_V506A]  Fyn (UniProt P06241)  phosphorylation enrichment                 0.9
44               RHPYFYAPELL [ALB_Y174]  Fyn (UniProt P06241)  phosphorylation enrichment               0.517
45      LERYIYNRQEF [HLA-DPB1_Y59_E62Q]  Fyn (UniProt P06241)  phosphorylation enrichment               0.819
46       PTTKTYFPHFF [HBA1_Y43_D48Y_YF]  Fyn (UniProt P06241)  phosphorylation enrichment               0.723
47             KALKQYRAGPS [DDX27_Y763]  Fyn (UniProt P06241)  phosphorylation enrichment                0.43
48       WISNRYPDFSS [PRPH2_Y184_L185P]  Fyn (UniProt P06241)  phosphorylation enrichment               0.404
49        KDFETYQPFQN [CTNND2_Y1157_YF]  Fyn (UniProt P06241)  phosphorylation enrichment                4.76
50      LEVPLYKNGVK [CPS1_Y1069_A1065E]  Fyn (UniProt P06241)  phosphorylation enrichment               0.759
51     LLQEWYMIISR [HUWE1_Y4066_R4063Q]  Fyn (UniProt P06241)  phosphorylation enrichment               0.766
52        SECCKYKTDNP [OSMR_Y689_I691T]  Fyn (UniProt P06241)  phosphorylation enrichment               0.375
53       YMKEPYIQSRF [HIPK4_Y175_V171M]  Fyn (UniProt P06241)  phosphorylation enrichment               0.461
54         FCVVRYCWLRR [MPZ_Y181_Y177C]  Fyn (UniProt P06241)  phosphorylation enrichment               0.606
55              YSQNIYIQNRN [PKP2_Y631]  Fyn (UniProt P06241)  phosphorylation enrichment               0.443
56        CTTNHYNYMCN [TP53_Y234_I232N]  Fyn (UniProt P06241)  phosphorylation enrichment               0.382
57   LTRDIYKNDFF [ROS1_Y2110_A2106T_YF]  Fyn (UniProt P06241)  phosphorylation enrichment               0.836
